Target: human M2 receptor (Homo sapiens, UniProt P08172)
Sequence (P08172 whole entry): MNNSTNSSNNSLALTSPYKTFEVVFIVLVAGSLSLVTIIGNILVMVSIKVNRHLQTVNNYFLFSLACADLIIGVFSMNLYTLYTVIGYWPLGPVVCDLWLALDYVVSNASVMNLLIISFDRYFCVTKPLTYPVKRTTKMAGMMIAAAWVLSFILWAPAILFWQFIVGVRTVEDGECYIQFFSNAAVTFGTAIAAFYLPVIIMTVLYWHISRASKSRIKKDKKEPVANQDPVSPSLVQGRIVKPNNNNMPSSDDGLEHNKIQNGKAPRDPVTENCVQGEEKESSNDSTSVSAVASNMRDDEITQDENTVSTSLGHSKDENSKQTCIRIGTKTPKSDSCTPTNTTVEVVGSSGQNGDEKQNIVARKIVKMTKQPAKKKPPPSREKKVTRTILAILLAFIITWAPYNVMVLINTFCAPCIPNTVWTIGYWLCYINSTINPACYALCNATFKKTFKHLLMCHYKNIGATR
Conditions: Receptor activity EC50, allosteric potency at EC20 acetylcholine; M2-GIRK1/4 reporter cells; in some cases mean of two or more determinations
valueKind: pEC50
Remember, pEC50 is on a log scale: it is -log10 of the molar concentration.

Test item CC[C@H](NC(=O)c1cn(-c2c(F)cc(F)cc2Cl)c2nc(N3C[C@@H](O)[C@H](O)C3)ccc2c1=O)C(F)(F)F (single isomer, unassigned) [Example 567] ; human M2 receptor (Homo sapiens, UniProt P08172); reported pEC50 was 6.85

Test item O=C(N[C@@H](C1CC1)C(F)(F)F)c1cn(-c2c(F)cc(F)cc2F)c2nc(N3C[C@@H](O)[C@@H](O)C3)ccc2c1=O [Example 630] ; human M2 receptor (Homo sapiens, UniProt P08172); reported pEC50 was 7.32

Test item O=C(NC(CC(F)(F)F)C(F)(F)F)c1cn(-c2c(F)cc(F)cc2F)c2nc(N3C[C@@H](O)[C@H](O)C3)ccc2c1=O (stereo partly drawn) [Example 545] ; human M2 receptor (Homo sapiens, UniProt P08172); reported pEC50 was 8.10

Test item CC(C)(CC(F)(F)F)NC(=O)c1cn(-c2c(F)cc(F)cc2Cl)c2nc(N3C[C@@H](O)CC3=O)ccc2c1=O [Example 395] ; human M2 receptor (Homo sapiens, UniProt P08172); reported pEC50 was 8.15

Test item CC[C@@H](NC(=O)c1cn(-c2ccc(F)cc2F)c2nc(N3C(=O)CCC3C)ccc2c1=O)C(F)(F)F (mixture of isomers) [Example 426] ; human M2 receptor (Homo sapiens, UniProt P08172); reported pEC50 was 7.32

Test item CC[C@@H](NC(=O)c1cn(-c2ccc(F)cc2F)c2nc(N3CC(C)NC3=O)ccc2c1=O)C(F)(F)F (single isomer, unassigned) [Example 433] ; human M2 receptor (Homo sapiens, UniProt P08172); reported pEC50 was 6.77

* * *

Molecular target: human M2 receptor (Homo sapiens)
Conditions: Receptor activity EC50, M2-GIRK1/4 activation test, acetylcholine at EC20; allosteric potency; in some cases mean values from two or more determinations
Hi there, I'd appreciate the recorded EC50 for every entry that follows.
Hi! Could you send only the number? It should be in nM, unit omitted.

In plain terms, CN(C)c1ccc2c(=O)c(C(=O)NC34CCC(F)(CC3)CC4)cn(-c3ccc(F)cc3F)c2n1 [Example 47] has a documented EC50 of 43

In plain terms, CNc1ccc2c(=O)c(C(=O)NC34CC5CC(C3)C(F)(F)C(C5)C4)cn(-c3ccc(F)cc3F)c2n1 [Example 161] has a documented EC50 of 137

In plain terms, O=C(NC(c1c(F)cccc1F)C(F)(F)F)c1cn(-c2ccc(F)cc2F)c2nc(N3CC[C@H](F)C3)ccc2c1=O (single isomer, unassigned) [Example 242] has a documented EC50 of 90

In plain terms, C[C@@H]1C[C@](C)(O)CN1c1ccc2c(=O)c(C(=O)N[C@@H](C)C(F)(F)F)cn(-c3c(F)cc(F)cc3Cl)c2n1 [Example 390] has a documented EC50 of 14

In plain terms, C[C@@H](COC(F)(F)F)NC(=O)c1cn(-c2c(F)cc(F)cc2F)c2nc(N3C[C@@H](O)[C@H](O)C3)ccc2c1=O [Example 353] has a documented EC50 of 50

In plain terms, CC[C@@H](NC(=O)c1cn(-c2ccc(F)cc2F)c2nc(N3CCC3=O)ccc2c1=O)C(F)(F)F [Example 205] has a documented EC50 of 105
